SYSTEM: UniProt Q12809
Sequence (Q12809 whole entry): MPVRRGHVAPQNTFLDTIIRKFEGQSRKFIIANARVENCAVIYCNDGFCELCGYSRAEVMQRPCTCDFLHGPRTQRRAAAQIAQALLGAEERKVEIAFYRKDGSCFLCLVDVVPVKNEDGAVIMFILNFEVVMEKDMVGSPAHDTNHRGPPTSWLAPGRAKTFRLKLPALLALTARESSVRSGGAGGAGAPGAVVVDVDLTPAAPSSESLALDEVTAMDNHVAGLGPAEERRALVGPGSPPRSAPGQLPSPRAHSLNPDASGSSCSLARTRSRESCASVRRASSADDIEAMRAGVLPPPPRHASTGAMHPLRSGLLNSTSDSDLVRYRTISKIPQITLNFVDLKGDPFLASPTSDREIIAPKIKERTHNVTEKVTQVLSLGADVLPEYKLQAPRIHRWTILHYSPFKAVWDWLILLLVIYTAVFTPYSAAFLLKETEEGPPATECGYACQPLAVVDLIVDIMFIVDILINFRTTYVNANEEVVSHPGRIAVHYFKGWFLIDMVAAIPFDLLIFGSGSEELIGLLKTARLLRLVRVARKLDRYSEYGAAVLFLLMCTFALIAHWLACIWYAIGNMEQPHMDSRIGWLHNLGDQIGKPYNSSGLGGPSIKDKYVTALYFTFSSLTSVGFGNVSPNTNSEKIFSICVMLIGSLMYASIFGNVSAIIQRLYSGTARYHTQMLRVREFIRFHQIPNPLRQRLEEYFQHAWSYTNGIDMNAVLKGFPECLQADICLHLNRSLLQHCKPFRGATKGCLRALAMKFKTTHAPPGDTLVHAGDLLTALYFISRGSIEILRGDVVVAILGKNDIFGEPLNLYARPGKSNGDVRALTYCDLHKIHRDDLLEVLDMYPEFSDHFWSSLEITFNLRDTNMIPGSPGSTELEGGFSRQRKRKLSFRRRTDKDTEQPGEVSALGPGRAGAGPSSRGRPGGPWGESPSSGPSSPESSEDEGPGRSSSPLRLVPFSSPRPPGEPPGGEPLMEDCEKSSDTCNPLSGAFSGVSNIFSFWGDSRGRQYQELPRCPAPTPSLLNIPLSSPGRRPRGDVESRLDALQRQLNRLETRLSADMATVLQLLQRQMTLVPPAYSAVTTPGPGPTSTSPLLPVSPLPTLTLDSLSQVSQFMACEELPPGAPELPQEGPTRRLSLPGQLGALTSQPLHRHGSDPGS
EXPERIMENT_DESCRIPTION: Inhibition of human ERG at 10 uM by rubidium efflux assay
Use T when the recorded inhibition at 10 µM is no lower than 7%; use F when it is lower.

Does CC[C@H]1CN(c2ncc(C(=O)NC)nc2C)CCN1C1CCN(C(=O)c2ccc(Cl)nc2N)CC1 have a reported inhibition at 10 µM of at least 7%?
F

Does CC[C@H]1CN(c2nc(N)c(C(=O)NCCNS(C)(=O)=O)nc2Cl)CCN1C1CCN(Cc2ccc(Cl)cc2)CC1 have a reported inhibition at 10 µM of at least 7%?
T

Does CC[C@H]1CN(c2ncc(C(N)=O)nc2C)CCN1C1CCN(C(=O)c2ccc(Cl)cc2)CC1 have a reported inhibition at 10 µM of at least 7%?
F

Does CC[C@H]1CN(c2ncc(C(=O)NC(C)(C)C)nc2Cl)CCN1C1CCN(C(=O)c2ccc(Cl)nc2N)CC1 have a reported inhibition at 10 µM of at least 7%?
T

Does CC[C@H]1CN(c2ncc(C(=O)NC)nc2C(F)(F)F)CCN1C1CCN(C(=O)c2ccc(Cl)nc2N)CC1 have a reported inhibition at 10 µM of at least 7%?
F

Does CC[C@H]1CN(c2ncc(C(=O)NC)nc2C)[C@H](C)CN1C1CCN(C(=O)c2ccc(Cl)cc2)CC1 have a reported inhibition at 10 µM of at least 7%?
T

Does CC[C@H]1CN(c2ncc(C(=O)NC3CC3)nc2C)CCN1C1CCN(C(=O)c2ccc(Cl)nc2N)CC1 have a reported inhibition at 10 µM of at least 7%?
T
